The measurements presented in this section are drawn from patent US20140348834A1.

# TGT: T1, human IL-17A/F (human, UniProt Q16552 24-155; Q96PD4 31-163)
# T1 construct: Heterodimer of IL-17A and IL-17F, purified recombinant; also called HuIL-17A/F; Hu IL-17A/F
# PROTOCOL NOTES: SPR Biacore, captured binder
OBSERVATION TYPE: pKd
Would you please state pKd, meaning minus log10 of the concentration in mol/L, as a bare number?

Past entries and their recorded results:
[[record]]
binder = "IL17-TN-L7-G9 (antibody, V domains shown, Fully human antibody) VH: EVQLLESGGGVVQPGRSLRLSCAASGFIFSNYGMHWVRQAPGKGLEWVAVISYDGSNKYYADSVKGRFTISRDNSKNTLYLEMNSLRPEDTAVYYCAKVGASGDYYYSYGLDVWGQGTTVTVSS VL: QSGLTQPPSASGTPGQTVSISCSGSNSNIGSHSVNWYQQVPGAAPKLLMYGIGQRPSGVPDRFSVSQSGTSASLAISGLQSEDEADYYCATWDDSLGGYVFGSGTKVTVLG"
observation_type = "pKd"
quantitative_readout = 9.04

[[record]]
binder = "IL17-G9-4 (antibody, V domains shown, converted into IgG) VH: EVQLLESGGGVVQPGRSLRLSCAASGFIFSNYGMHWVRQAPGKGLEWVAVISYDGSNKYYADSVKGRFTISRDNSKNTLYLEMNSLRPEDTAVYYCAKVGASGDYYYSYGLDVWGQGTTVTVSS VL: QSVLTQPPSASGTPGQTVSISCSGRQSNIGRHYVDWYQQVPGAAPKLLMYYDSIRPSGVPDRFSGSQSGTSASLAISGLQSEDEADYYCATWDDSLGGYVFGSGTKVTVLG"
observation_type = "pKd"
quantitative_readout = 11.37


Would you kindly look at the next entry?
Ask: Tell me the measured pKd of IL17-B6-17 (antibody, V domains shown) VH: EVQLVQSGAEVKKPGSSVKVSCKASGGSFGGYGIGWVRQAPGQGLEWMGGITPFFGFADYAQKFQGRVTITADESTTTAYMELSGLTSDDTAVYYCARDPNEFWNGYYSTHDFDSWGQGTTVTVSS VL: EIVLTQSPDFQSVTPKEKVTITCRASQDIGSELHWYQQKPDQPPKLLIKYASHSTSGVPSRFSGSGSGTDFTLTINGLEAEDAGTYYCHQTDSLPYTFGPGTKVDIK , please.
Result: 11.77
